Target: S1PR1 (Homo sapiens, UniProt P21453)
Construct: expressed in transfected cells
Sequence (P21453 whole entry): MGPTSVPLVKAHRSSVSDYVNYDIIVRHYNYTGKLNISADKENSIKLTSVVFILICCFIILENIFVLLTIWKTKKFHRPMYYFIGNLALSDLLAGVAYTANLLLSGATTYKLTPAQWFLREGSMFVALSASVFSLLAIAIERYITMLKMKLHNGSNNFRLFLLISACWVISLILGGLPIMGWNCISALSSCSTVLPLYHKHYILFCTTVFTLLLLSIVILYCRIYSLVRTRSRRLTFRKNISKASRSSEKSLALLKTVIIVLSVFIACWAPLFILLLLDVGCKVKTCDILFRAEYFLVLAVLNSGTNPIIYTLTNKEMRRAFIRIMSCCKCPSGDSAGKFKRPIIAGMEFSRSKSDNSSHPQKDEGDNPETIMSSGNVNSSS
Experiment: In vitro S1PR1 agonistic activity, PathHunter cell line, chemiluminescent detection
Assay type: cell-based
Settings: % activity vs maximum control ligand
Structures can show the parent of a compound that is named as a salt.
quantity_name: Emax (%)

Guide cases for Emax, answers given:
| compound | quantity_name | units_symbol | result_value |
| --- | --- | --- | --- |
| CC(C)Oc1ccc(-c2nc(-c3cccc4c3CCC43CCN(CC4(C(=O)O)CC4)C3)no2)cc1C#N (stereo not shown) [Hydrochloride of compound 22] | Emax | % | 118 |
| CC(C)Oc1ccc(-c2nc(-c3cccc4c3CCC43CCN(C(=O)CS(C)(=O)=O)C3)no2)cc1C#N (stereo not shown) [Compound 7] | Emax | % | 90.7 |
| CC(C)Oc1ccc(-c2nc(-c3cccc4c3CCC43CCN(CC4(C(=O)O)CC4)C3)no2)cc1C(F)(F)F (stereo not shown) [Hydrochloride of compound 43] | Emax | % | 108 |
| CC(C)Oc1ccc(-c2ncc(-c3cccc4c3CCC43CCN(CC4(C(=O)O)CC4)C3)o2)cc1C#N (stereo not shown) [Hydrochloride of compound 27] | Emax | % | 63.4 |

A: CC(C)Oc1ccc(-c2nc(-c3cccc4c3CCC43CCN(C(=O)[C@@H](O)CO)C3)no2)cc1C#N (stereo partly shown) [Compound 45]
B: CC(C)Nc1ncc(-c2nc(-c3cccc4c3CCC43CCN(C(=O)CO)C3)no2)cc1C#N (stereo not shown) [Compound 13]
Select the item whose Emax value is smaller, choosing between A and B . Could you answer with the label of the item you picked?
B
(B: 77.8%, A: 126%)

* * *

Biological target: S1PR1 (Homo sapiens, UniProt P21453)
Construct: expressed in transfected cells
Assay: In vitro S1PR1 agonistic activity, PathHunter cell line, chemiluminescent detection
Assay type: cell-based
Settings: % activity vs maximum control ligand
Counter-ions that a name gives are not always drawn.
quantity_name: Emax (%)

| compound | result_value |
| --- | --- |
| CC(C)Oc1ccc(-c2ncc(-c3cccc4c3CCC43CCN(C(=O)CO)C3)o2)cc1C#N (stereo not shown) | 70.8 |
| CC(C)Oc1ccc(-c2nc(-c3cccc4c3CCC43CCN(C(=O)[C@H](O)CO)C3)no2)cc1C#N (stereo partly shown) [Hydrochloride of compound 44] | 104 |
| N#Cc1cc(-c2nc(-c3cccc4c3CCC43CCN(C(=O)CO)C3)no2)ccc1OC1CCCC1 (stereo not shown) | 75.8 |
| CC(C)Oc1ccc(-c2nnc(-c3cccc4c3CCC43CCN(C(=O)CO)C3)s2)cc1C#N (stereo not shown) | 98.9 |
| N#Cc1cc(-c2nc(-c3cccc4c3CCC43CCN(C(=O)CO)C3)no2)ccc1OC(F)F (stereo not shown) | 80.8 |
| CC(C)Cc1ccc(-c2nc(-c3cccc4c3CCC43CCN(CC4(C(=O)O)CC4)C3)no2)cc1 (stereo not shown) [Hydrochloride of compound 46] | 105 |
| CC(C)Oc1ccc(-c2nnc(-c3cccc4c3CCC43CCN(CC4(C(=O)O)CC4)C3)s2)cc1C#N (stereo not shown) [Hydrochloride of compound 28] | 77.7 |
| CC(C)Oc1ccc(-c2nc(-c3cccc4c3CCC43CCN(CC4(C(=O)O)CC4)C3)ns2)cc1C#N (stereo not shown) [Hydrochloride of compound 24] | 87.1 |
| CC(C)Oc1ccc(-c2ncc(-c3cccc4c3CCC43CCN(C(=O)CO)C3)s2)cc1C#N (stereo not shown) | 82.2 |
| CC(C)Oc1ccc(-c2ncc(-c3cccc4c3CCC43CCN(CC4(C(=O)O)CC4)C3)cn2)cc1C#N (stereo not shown) [Hydrochloride of compound 25] | 82.1 |
| COc1cc(-c2nc(-c3cccc4c3CCC43CCN(CC4(C(=O)O)CC4)C3)no2)cc(C2CCCC2)n1 (stereo not shown) | 102 |
| CC(C)Oc1ccc(-c2nc(-c3cccc4c3CCC43CCN(C(=O)CO)C3)no2)cc1C#N (stereo not shown) | 122 |
| CC(C)Oc1ccc(-c2ncc(-c3cccc4c3CCC43CCN(CC4(C(=O)O)CC4)C3)s2)cc1C#N (stereo not shown) [Hydrochloride of compound 26] | 73.8 |
| CC(C)Oc1ccc(-c2nc(-c3cccc4c3CCC43CCN(C(=O)CCC(=O)O)C3)no2)cc1C#N (stereo not shown) | 85.1 |
| O=C(O)C1(CN2CCC3(CCc4c(-c5noc(-c6ccc(C7CCCCC7)c(C(F)(F)F)c6)n5)cccc43)C2)CC1 (stereo not shown) [Hydrochloride of compound 37] | 94.1 |
| CC(C)Oc1ccc(-c2nc(-c3cccc4c3CCC43CCN(C(=O)CC#N)C3)no2)cc1C#N (stereo not shown) | 99.4 |
